B1: SPOPL (parent)
chain: YTGRAPNLDKMADNLLAAADKYAL

Variants of: B1
TEST SUMMARY: protein stability index of a GFP-peptide fusion (GPS, HEK-293T) (PSI 1-6); higher = more stable;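 also: lentivirally expressed fusions sorted by FACS into six bins by GFP to DsRed ratio, PSI derived from sequencing read proportions per bin multiplied by bin number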
EXPERIMENTAL SETUP: c terminus: a fixed tail appended
OBSERVATION TYPE: protein stability index
Give bare numbers.

VARIANT DESCRIPTOR	protein stability index
Y1G	4.11

Hi! Can you tell me protein stability index for each of these variants?
1. A17C
2. A23F
3. L24A
4. A18M

result:
2.28
1.81
2.02
1.9

Return reported protein stability index values for all items listed beneath this line.
1. K10S
2. K10M

result:
[2.83, 2.41]

I would be grateful if you could provide protein stability index for each of the following entries.
1. G3C
2. A19Y
3. K10D
4. N14W
5. L16F

result:
[1.64, 2.11, 1.91, 1.45, 1.22]

query: // protein stability index lookup, key: A23G
result: 1.83
